Quick list: folding enthalpy per entry.
assay: folding enthalpy; higher = less favourable; fluorescence melt of hairpins on a sequencing array, two-state fit; details: sodium 0.088 M
Field format: number, assumed kcal/mol, no unit text.

Below are worked cases with known answers.
Look at this sequence and give its reported folding enthalpy. GGATTAACGAAAGTTTCC (((..(((....))))))
-19.4

Look at this sequence and give its reported folding enthalpy. GTGATACGAAAGTAGCAC (((.(((....))).)))
-48.7

Look at this sequence and give its reported folding enthalpy. GGATCGCGAAAGCGTCC (((.(((....))))))
-22.7

Look at this sequence and give its reported folding enthalpy. GCAACGCGAAAGCAGTGC (((..((....))..)))
-13.3

Continuing:
Look at this sequence and give its reported folding enthalpy. GACCAGGGAAACCTAGTC (((.(((....))).)))
-16.9

Look at this sequence and give its reported folding enthalpy. GCATACGGAAACATATGC (((((.(....).)))))
-24.4

Look at this sequence and give its reported folding enthalpy. GCAACAGAAATGTTGC ((((((....))))))
-40.1

Look at this sequence and give its reported folding enthalpy. GGTATGGGAAACCATGCC ((.((((....)))).))
-37.4

Look at this sequence and give its reported folding enthalpy. GAAGTGACGAAAGTCTTC (((..(((....))))))
-8.64

Look at this sequence and give its reported folding enthalpy. GCGACAAATCGC ((((....))))
-16.5

Look at this sequence and give its reported folding enthalpy. GACATGGCGAAAGCCGTC (((..(((....))))))
-10.1

Look at this sequence and give its reported folding enthalpy. GGTCCCGGAAACGGGGTC (..((((....))))..)
-14.4
